Where do the numbers come from? From patent US4997652A.

- test details: Residual vitreous doxorubicin after injection of doxorubicin into the PC
- Type: in vivo, rabbits
- condition notes: rabbit, vitreous, 0.05 mg; PC injection, 50 ug; read-out: halflife of free doxorubicin (converted)
observed property: half-life

Please list half-life recorded for the compound `COc1cccc2c1C(=O)c1c(O)c3c(c(O)c1C2=O)C[C@@](O)(C(=O)CO)C[C@@H]3O[C@H]1C[C@H](N)[C@H](O)[C@H](C)O1`
~3 h

====

- test details: Residual vitreous doxorubicin after injection of doxorubicin into the PC
- Type: in vivo, rabbits
- condition notes: rabbit, vitreous, 0.05 mg, 50 ug into PC right eye, free drug; 16 hours; read-out: Residual vitreous doxorubicin, Mean ± SD
observed property: concentration at 16 h

Please list concentration at 16 h recorded for the compound `COc1cccc2c1C(=O)c1c(O)c3c(c(O)c1C2=O)C[C@@](O)(C(=O)CO)C[C@@H]3O[C@H]1C[C@H](N)[C@H](O)[C@H](C)O1`
240 ng/mL

====

- test details: Residual vitreous doxorubicin after injection of doxorubicin into the PC
- Assay type: in vivo, rabbits
- condition notes: rabbit, vitreous, 0.05 mg, 50 ug into PC right eye, free drug; 4 hours; read-out: Residual vitreous doxorubicin, Mean ± SD
observed property: concentration at 4 h (ng/mL)
Give just the numeric value; ng/mL need not be written.

Please list concentration at 4 h recorded for the molecule `COc1cccc2c1C(=O)c1c(O)c3c(c(O)c1C2=O)C[C@@](O)(C(=O)CO)C[C@@H]3O[C@H]1C[C@H](N)[C@H](O)[C@H](C)O1`
3850

====

- test details: Residual vitreous doxorubicin after injection of doxorubicin into the PC
- Type: in vivo, rabbits
- condition notes: rabbit, vitreous, 0.05 mg, 50 ug into PC right eye, free drug; 8 hours; read-out: Residual vitreous doxorubicin, Mean ± SD
observed property: concentration at 8 h (ng/mL)
Give just the numeric value; ng/mL need not be written.

Please list concentration at 8 h recorded for the molecule `COc1cccc2c1C(=O)c1c(O)c3c(c(O)c1C2=O)C[C@@](O)(C(=O)CO)C[C@@H]3O[C@H]1C[C@H](N)[C@H](O)[C@H](C)O1`
860

====

- test details: Residual vitreous doxorubicin after injection of doxorubicin into the PC
- Type: in vivo, rabbits
- condition notes: rabbit, vitreous, 0.05 mg, 50 ug into PC right eye, free drug; 2 hours; read-out: Residual vitreous doxorubicin, Mean ± SD
observed property: concentration at 2 h

Please list concentration at 2 h recorded for the compound `COc1cccc2c1C(=O)c1c(O)c3c(c(O)c1C2=O)C[C@@](O)(C(=O)CO)C[C@@H]3O[C@H]1C[C@H](N)[C@H](O)[C@H](C)O1`
5590 ng/mL

====

- test details: in vivo
- Parameters: species or system New Zealand white rabbits
- condition notes: rabbit
observed property: half-life

Please list half-life recorded for the compound `COc1cccc2c1C(=O)c1c(O)c3c(c(O)c1C2=O)C[C@@](O)(C(=O)CO)C[C@@H]3O[C@H]1C[C@H](N)[C@H](O)[C@H](C)O1`
~1 h

====

- test details: Residual vitreous doxorubicin after injection of doxorubicin into the PC
- Assay type: in vivo, rabbits
- condition notes: rabbit, vitreous, 0.05 mg, 50 ug into PC right eye, free drug; 16 hours; read-out: Residual vitreous doxorubicin, single sample
observed property: concentration at 16 h (ng/mL)
Give just the numeric value; ng/mL need not be written.

Please list concentration at 16 h recorded for the compound `COc1cccc2c1C(=O)c1c(O)c3c(c(O)c1C2=O)C[C@@](O)(C(=O)CO)C[C@@H]3O[C@H]1C[C@H](N)[C@H](O)[C@H](C)O1`
260

====

- test details: Residual vitreous doxorubicin after injection of doxorubicin into the PC
- Assay type: in vivo, rabbits
- condition notes: rabbit, vitreous, 0.05 mg, 50 ug into PC right eye, free drug; 4 hours; read-out: Residual vitreous doxorubicin, single sample
observed property: concentration at 4 h (ng/mL)
Give just the numeric value; ng/mL need not be written.

Please list concentration at 4 h recorded for the compound COc1cccc2c1C(=O)c1c(O)c3c(c(O)c1C2=O)C[C@@](O)(C(=O)CO)C[C@@H]3O[C@H]1C[C@H](N)[C@H](O)[C@H](C)O1 [doxorubicin]
4300

====

- test details: Residual vitreous doxorubicin after injection of doxorubicin into the PC
- Assay type: in vivo, rabbits
- condition notes: rabbit, vitreous, 0.05 mg, 50 ug into PC right eye, free drug; 2 hours; read-out: Residual vitreous doxorubicin, single sample
- Protocol: 1. 50 μg/0.1 ml doxorubicin was injected into the posterior chamber (PC) of each of 10 rabbits. The contralateral eye served as control.
observed property: concentration at 2 h

Please list concentration at 2 h recorded for the molecule COc1cccc2c1C(=O)c1c(O)c3c(c(O)c1C2=O)C[C@@](O)(C(=O)CO)C[C@@H]3O[C@H]1C[C@H](N)[C@H](O)[C@H](C)O1 [doxorubicin]
6540 ng/mL
